The origin of these recorded values is PubChem BioAssay (NCI).

Test system: SW-620 colon
Procedure details: NCI-60 one-dose screen, 48 h (100 = growth as untreated, 0 = no growth, -100 = all killed)
Measurement conditions: 10 µM unless noted
Compounds without any hit were thinned out: in the full panel of roughly 83,000, 20% have a hit.
Measured parameter: growth (%)

1) O=C(/C=C/c1ccccc1)N(C1CCCCC1)C1CCCCC1    92.4
2) CC(C)(C)CC(C)(C)Nc1c(-c2c(O)c3ccccc3oc2=O)nc2sc3ccccc3n12    21.3
3) COC(=O)/C=C1/SC(=NCc2ccccc2)N(CCc2c[nH]c3ccccc23)C1=O    72
4) CCCCn1c(NC(C)=O)c(S(=O)(=O)c2ccccc2)c2nc3ccccc3nc21    109
5) CCCOC(=O)Nc1nc2ccc(SCC)cc2s1    52.5
6) c1cc(OCCCCCOc2cccc(-c3nc4ccccc4[nH]3)c2)cc(-c2nc3ccccc3[nH]2)c1    12.7
7) O=C(NNc1nc2cc(F)ccc2n2c(CN3CCOCC3)ccc12)c1ccccc1    -1.14
8) COc1cc2c(c(OC)c1OC)CCC(c1cccc(C(=O)Nc3ccc(Br)cc3)c1)O2 (configuration not stated)    88.7
9) O=S(=O)(NCCNc1nccc(-c2c(-c3ccc(F)c(O)c3)nc3sccn23)n1)c1ccc(Cl)cc1    52.3
10) CCOC(=O)NC(=S)n1oc(=O)c2ccccc21    97.5
11) C=C(C)[C@@H]1CC[C@]2(C(=O)N3CCN(C)CC3)CC[C@]3(C)[C@H](CC[C@@H]4[C@@](C)(CCC(=O)O)[C@H](C(=C)C)CC[C@]43C)[C@@H]12    99.7
12) Cc1cc(O)cc(-c2nn(C)cc2-c2cc(N3CCOCC3)nc(-c3cccnc3)n2)c1    38.4
